# measurement_target: SHP2 full-length protein (Homo sapiens)
# experiment_notes: SHP2 allosteric inhibition experiment (Homogeneous Full Length SHP-2 Assay Kit)
# measurement_context: full-length SHP2 0.06 nM with SHP-2 activating peptide; ten-point, 1 μM to 0.05 nM; read-out: IC50 Values of Compounds Inhibiting SHP2
pIC50: −log10 of the molar value.
Entries and their pIC50 values follow.

Would you please look over these solved cases?
compound: N[C@@H]1c2ccccc2CC12CCN(c1cnc3c(=O)n(-c4cccc(Cl)c4Cl)c(=O)[nH]c3n1)CC2 [Compound 13]
value_kind: pIC50
observed_measurement: 7.00 to 8.00

compound: C[C@@H]1OCC2(CCN(c3cnc(Sc4cccc(Nc5cccnc5)c4Cl)nc3)CC2)[C@@H]1N [Compound 107]
value_kind: pIC50
observed_measurement: 7.00 to 8.00

compound: C[C@@H]1OCC2(CCN(c3ncc(Sc4cccc(-c5cnccn5)c4Cl)cn3)CC2)[C@@H]1N [Compound 116]
value_kind: pIC50
observed_measurement: ≥ 8.00

compound: Nc1nccc(-n2c(=O)[nH]c3nc(N4CCC5(CC4)Cc4ncccc4[C@H]5N)cnc3c2=O)c1Cl [Compound 19]
value_kind: pIC50
observed_measurement: ≥ 8.00

compound: N[C@@H]1c2cccnc2CC12CCN(c1cnc3c(=O)n(-c4cccc(Cl)c4Cl)c(=O)[nH]c3n1)CC2 [Compound 14]
value_kind: pIC50
observed_measurement: 7.00 to 8.00

Lookup result for C[C@@H]1OCC2(CCN(c3ncc4nc(Sc5cccc(-c6cnccn6)c5Cl)cnc4n3)CC2)[C@@H]1N [Compound 73] ; measured pIC50: ≥ 8.00

Lookup result for C[C@@H]1OCC2(CCN(c3cnc(Sc4cccc(-c5cnccn5)c4Cl)nc3)CC2)[C@@H]1N [Compound 104] ; measured pIC50: ≥ 8.00

###

# measurement_target: UniProtKB Q06124
# Sequence (Q06124 1-593): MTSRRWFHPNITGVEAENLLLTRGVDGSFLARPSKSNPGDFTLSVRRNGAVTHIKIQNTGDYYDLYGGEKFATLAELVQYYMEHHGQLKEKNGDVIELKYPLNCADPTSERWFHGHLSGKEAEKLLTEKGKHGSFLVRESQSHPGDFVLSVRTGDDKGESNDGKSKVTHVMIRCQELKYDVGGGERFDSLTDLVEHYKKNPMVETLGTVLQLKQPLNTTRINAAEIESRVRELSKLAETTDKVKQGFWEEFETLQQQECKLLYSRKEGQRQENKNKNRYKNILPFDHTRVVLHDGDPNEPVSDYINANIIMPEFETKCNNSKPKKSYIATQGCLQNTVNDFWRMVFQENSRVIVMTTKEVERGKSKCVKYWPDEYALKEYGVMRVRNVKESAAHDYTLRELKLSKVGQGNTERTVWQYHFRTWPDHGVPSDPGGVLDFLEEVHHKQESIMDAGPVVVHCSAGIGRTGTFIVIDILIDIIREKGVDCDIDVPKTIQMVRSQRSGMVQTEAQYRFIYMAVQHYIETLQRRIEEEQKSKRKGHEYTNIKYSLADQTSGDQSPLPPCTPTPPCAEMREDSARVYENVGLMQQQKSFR
# experiment_notes: SHP2 allosteric inhibition experiment (Homogeneous Full Length SHP-2 Assay Kit)
# measurement_context: full-length SHP2 0.06 nM with SHP-2 activating peptide; ten-point, 1 μM to 0.05 nM; read-out: IC50 Values of Compounds Inhibiting SHP2
Entries and their IC50 values follow.

Would you please look over these solved cases?
molecule: C[C@@H]1OCC2(CCN(c3cnc(Sc4cccc(-c5cncnc5)c4Cl)nc3)CC2)[C@@H]1N [Compound 103]
IC50: ≤ 10 nM
--
molecule: CCn1ccc(-c2cccc(Sc3cnc(N4CCC5(CC4)CO[C@@H](C)[C@H]5N)nc3)c2Cl)n1 [Compound 112]
IC50: 10 to 100 nM
--
molecule: C[C@@H]1OCC2(CCN(c3nnc(Sc4cccc(NC(=O)c5c(O)nc6n(c5=O)CCCC6)c4Cl)nn3)CC2)[C@@H]1N [Compound 137]
IC50: ≤ 10 nM
--
molecule: C[C@@H]1OCC2(CCN(c3cnc4nc(Sc5cccc(-c6cnccn6)c5Cl)ncc4n3)CC2)[C@@H]1N [Compound 72]
IC50: ≤ 10 nM
--
molecule: CC(C)n1ccc(-c2cccc(Sc3ncc4nc(N5CCC6(CC5)CO[C@@H](C)[C@H]6N)ccc4n3)c2Cl)n1 [Compound 71]
IC50: ≤ 10 nM

Lookup result for C[C@@H]1OCC2(CCN(c3ncc4nc(Sc5cccc(-c6ccn(C)n6)c5Cl)ccc4n3)CC2)[C@@H]1N [Compound 90] ; measured IC50: ≤ 10 nM

Lookup result for C[C@@H]1OCC2(CCN(c3ncc(Sc4cccc(-c5ccn(C)n5)c4Cl)cn3)CC2)[C@@H]1N [Compound 111] ; measured IC50: 10 to 100 nM

Lookup result for C[C@@H]1OCC2(CCN(c3ncc4nc(Sc5cccc(NC(=O)c6c(O)nc7n(c6=O)CCCC7)c5Cl)ccc4n3)CC2)[C@@H]1N [Compound 96] ; measured IC50: ≤ 10 nM

Lookup result for C[C@@H]1OCC2(CCN(c3cnc(Sc4cccc(Nc5ncccn5)c4Cl)nc3)CC2)[C@@H]1N [Compound 108] ; measured IC50: 10 to 100 nM
